# measurement.target: mGluR5 (Rattus norvegicus, UniProt P31424)
# Sequence (P31424 21-1203): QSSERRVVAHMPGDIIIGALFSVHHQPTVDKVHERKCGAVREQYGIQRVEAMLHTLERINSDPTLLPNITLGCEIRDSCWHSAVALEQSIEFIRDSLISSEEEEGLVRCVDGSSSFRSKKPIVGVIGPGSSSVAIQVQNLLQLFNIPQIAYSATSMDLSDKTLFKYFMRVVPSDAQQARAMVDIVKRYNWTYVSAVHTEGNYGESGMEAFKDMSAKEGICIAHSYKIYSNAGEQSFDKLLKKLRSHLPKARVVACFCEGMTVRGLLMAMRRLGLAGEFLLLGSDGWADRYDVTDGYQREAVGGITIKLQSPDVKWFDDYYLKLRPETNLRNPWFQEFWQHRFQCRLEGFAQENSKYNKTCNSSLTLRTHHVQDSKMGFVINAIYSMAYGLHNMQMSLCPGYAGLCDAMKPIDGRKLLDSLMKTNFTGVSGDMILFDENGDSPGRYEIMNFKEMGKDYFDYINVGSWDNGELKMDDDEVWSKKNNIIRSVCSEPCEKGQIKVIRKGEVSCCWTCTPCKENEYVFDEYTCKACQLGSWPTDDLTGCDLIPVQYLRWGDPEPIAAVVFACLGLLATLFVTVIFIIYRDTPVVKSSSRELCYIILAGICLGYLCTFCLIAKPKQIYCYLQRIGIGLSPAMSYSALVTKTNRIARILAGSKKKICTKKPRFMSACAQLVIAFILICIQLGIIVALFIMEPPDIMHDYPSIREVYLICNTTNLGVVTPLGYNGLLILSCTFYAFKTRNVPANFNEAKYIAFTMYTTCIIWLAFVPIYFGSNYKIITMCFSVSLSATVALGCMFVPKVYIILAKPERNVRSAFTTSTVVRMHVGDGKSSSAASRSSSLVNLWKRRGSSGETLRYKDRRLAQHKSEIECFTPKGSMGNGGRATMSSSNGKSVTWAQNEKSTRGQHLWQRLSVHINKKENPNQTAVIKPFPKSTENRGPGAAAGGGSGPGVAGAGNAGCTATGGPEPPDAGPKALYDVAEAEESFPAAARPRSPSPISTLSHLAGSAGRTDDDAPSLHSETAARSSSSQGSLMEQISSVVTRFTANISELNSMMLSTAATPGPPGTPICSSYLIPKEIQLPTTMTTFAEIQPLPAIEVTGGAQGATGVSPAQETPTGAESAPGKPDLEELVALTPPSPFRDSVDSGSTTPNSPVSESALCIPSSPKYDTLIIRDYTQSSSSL
# experiment.notes: IC50 column under 'Biological Activity' (assay not identified in the shown text; not the binding Ki)
measure.name: pIC50
Answers are plain numbers, as −log10 of the molar value.

The compound listed as `COc1ccc(C(=O)N2CCN(c3ccccc3Cl)C(=O)C2)cc1C#Cc1ccccn1` has a reported pIC50 of 7.30

The reported pIC50 of the compound `COc1ccc(C(=O)N2CCN(Cc3ccc(Cl)cc3)CC2)cc1C#Cc1ccccn1` was 6.84

Recorded result, `COc1ccc(C(=O)N2CCN(c3ccccc3)CC2)cc1C#Cc1ccccn1` , pIC50: 6.68

Kindly note the recorded pIC50 for `COc1cccc(N2CCN(C(=O)c3ccc(OC)c(C#Cc4ccccn4)c3)CC2)n1` , which is 7.07

// `COc1ccnc(N2CCN(C(=O)c3ccc(F)c(C#Cc4ccccn4)c3)CC2)n1` : pIC50 value = 7.52

For the 8 compounds below, give their pIC50 values.
1. Cc1ccc(C(=O)N2CCN(c3noc4ccccc34)CC2)cc1C#Cc1ccccn1
2. COc1ccc(C(=O)N2CCN(Cc3cccc(F)c3)CC2)cc1C#Cc1ccccn1
3. O=C(c1ccc(F)c(C#Cc2ccccn2)c1)N1CCN(c2ccccn2)CC1
4. COc1ccc(C(=O)N2CCN(c3cccc(C(F)(F)F)c3)CC2)cc1C#Cc1ccccn1
5. COc1ccc(C(=O)N2CCN(Cc3ccccc3)C(=O)C2)cc1C#Cc1ccccn1
6. COc1ccc(C(=O)N2CCN(Cc3ccc(F)cc3)CC2)cc1C#Cc1ccccn1
7. COc1ccc(C(=O)N2CCN(c3cncc(C)n3)CC2)cc1C#Cc1ccccn1
8. COc1ccc(C(=O)N2CCN(c3ncccc3C)CC2)cc1C#Cc1ccccn1

Response:
7.30
6.78
7.21
6.08
7.29
6.66
6.88
6.85

Field pIC50 (entry COc1ccc(C(=O)N2CCN(c3ccccc3)CC2C)cc1C#Cc1ccccn1 (centres unmarked) ) reads 7.02

###

So I've got a bunch of compounds here, and I need their inhibition at 10 µM values.
# measurement.target: rat mGluR5 receptor (Rattus norvegicus)
# Construct: expressed in transfected cells; host or cells: HEK-293
# experiment.notes: [3H]-MPEP displacement binding assay, HEK-293 cell membranes expressing rat mGluR5
# test.conditions: @ 10 μM compound; Biological Activity, Table 2A; read-out: PCT INHIB (%) @ 10 μM
Value and unit, in that order.

Examples with answers:
response.value for Cc1cccc(N2CCN(C(=O)c3cncc(C#Cc4ccccc4)c3)CC2)n1 [Compound 143] (field: inhibition at 10 µM) = 49%

Lab note: measured inhibition at 10 µM of O=C(c1cccc(C#Cc2ccccc2)c1)N1CCN(c2cnccn2)CC1 [Compound 86] was 85%

The compound listed as N#Cc1cccnc1N1CCN(C(=O)c2cccc(C#Cc3ccccc3)c2)CC1 [Compound 141] shows inhibition at 10 µM equal to 78%

List inhibition at 10 µM for every entry below, keeping the order given.
1. Cc1cccc(N2CCN(C(=O)c3cccc(C#Cc4ccccc4)c3)CC2)n1 [Compound 110]
2. O=C(c1cccc(C#Cc2ccccn2)c1)N1CCN(c2nnn[nH]2)CC1 [Compound 97]

Response:
1: 68%; 2: 0%

###

# measurement.target: rat mGluR5 receptor (Rattus norvegicus, UniProt P31424)
# Construct: expressed in transfected cells; host or cells: HEK-293
# Sequence (P31424 21-1203): as above
# experiment.notes: [3H]-MPEP displacement binding assay, HEK-293 cell membranes expressing rat mGluR5
# test.conditions: [3H]-MPEP displacement, rat mGluR5 membranes; read-out: Median Ki
measure.name: pKi
Answers are plain numbers, as −log10 of the molar value.

For reference, reported pKi for O=C(c1ccc(C(F)(F)F)c(C#Cc2ccccn2)c1)N1CCN(c2ccc(C(F)(F)F)cn2)CC1 [Compound 379] stands at 5.51

The value of pKi measured for the compound O=C(c1ccc(OC(F)F)c(C#Cc2ccccn2)c1)N1CCN(c2noc3ccccc23)CC1 [Compound 384] turned out to be 9.00

Noted for O=C(c1ccc(Cl)c(C#Cc2ccccn2)c1)N1CCN(c2cccc(C(F)(F)F)c2)CC1 [Compound 392] : its pKi reads 6.92

The reported value for Cc1cccc(N2CCN(C(=O)c3ccc(C(F)(F)F)c(C#Cc4ccccn4)c3)CC2)n1 [Compound 380] in terms of pKi is 6.45

Next:
For this compound ( O=C(c1ccc(C(F)(F)F)c(C#Cc2ccccn2)c1)N1CCN(c2nccs2)CC1 [Compound 378] ), measured pKi is 7.31
